The measurements presented in this section are drawn from patent US8247211B2.

System: Staphylococcus sp.
Assay: In vitro antibacterial evaluation: minimum inhibitory concentration (MIC), broth dilution method
Type: cell-based
Conditions: strain GC 4547
measured parameter: MIC Coagulase Negative Staphylococcus (GC 4547) (µg/mL)
Answers are plain numbers, in µg/mL.

CC(c1ccccc1)C1NC(=O)CNC(=O)C(CO)NC(=O)C(C(O)C2CNC(=N)N2C2OC(CO)C(O)C(O)C2O)NC(=O)C(C(O)C2CNC(=N)N2)NC(=O)C(Cc2ccc(OC3OC(CO)C(OC4OC5COC(CCc6ccccc6)OC5C(O)C4O)C(O)C3O)cc2)NC1=O (stereo not shown) :: 2

Batch of 5 compounds: report MIC Coagulase Negative Staphylococcus (GC 4547) for each.
1. CCCCCCC(=O)OCC1OC(OC2C(CO)OC(Oc3ccc(CC4NC(=O)C(C(C)c5ccccc5)NC(=O)CNC(=O)C(CO)NC(=O)C(C(O)C5CNC(=N)N5C5OC(CO)C(O)C(O)C5O)NC(=O)C(C(O)C5CNC(=N)N5)NC4=O)cc3)C(O)C2O)C(O)C(O)C1O (stereo not shown) [Example 97b]
2. CC(c1ccccc1)C1NC(=O)CNC(=O)C(CO)NC(=O)C(C(O)C2CNC(=N)N2C2OC(CO)C(O)C(O)C2O)NC(=O)C(C(O)C2CNC(=N)N2)NC(=O)C(Cc2ccc(OC3OC(COC(=O)C(c4ccccc4)c4ccccc4)C(OC4OC(CO)C(O)C(O)C4O)C(O)C3O)cc2)NC1=O (stereo not shown) [Example 96b]
3. CC(c1ccccc1)C1NC(=O)CNC(=O)C(CO)NC(=O)C(C(O)C2CNC(=N)N2C2OC(CO)C(O)C(O)C2O)NC(=O)C(C(O)C2CNC(=N)N2)NC(=O)C(Cc2ccc(OC3OC(CO)C(OC4OC5COC6(OC5C(O)C4O)C4CCCC6CCC4)C(O)C3O)cc2)NC1=O (stereo not shown)
4. CC(c1ccccc1)C1NC(=O)CNC(=O)C(CO)NC(=O)C(C(O)C2CNC(=N)N2C2OC(CO)C(O)C(O)C2O)NC(=O)C(C(O)C2CNC(=N)N2)NC(=O)C(Cc2ccc(OC3OC(COC(=O)CCC4CCCC4)C(OC4OC(CO)C(O)C(O)C4O)C(O)C3O)cc2)NC1=O (stereo not shown) [Example 100b]
5. CC(c1ccccc1)C1NC(=O)CNC(=O)C(CO)NC(=O)C(C(O)C2CNC(=N)N2C2OC(CO)C(O)C(O)C2O)NC(=O)C(C(O)C2CNC(=N)N2)NC(=O)C(Cc2ccc(OC3OC(CO)C(OC4OC5COC(Cc6ccc(Cl)cc6)OC5C(O)C4O)C(O)C3O)cc2)NC1=O (stereo not shown)

Reply:
[1, 1, 2, 1, 1]
